# test_description: Metabolic stability and clearance in mouse liver microsomes
# Type: in vitro ADME
# applied_conditions: male, CD-1; mouse liver microsomes
property_label: microsomal CLint at 1 μM

INPUT: What microsomal CLint at 1 μM value was documented for this molecule, Cc1n[nH]c(C)c1N1CCN(c2cc(C(=O)O)ccc2F)CC1 [Compound 18a] ?
OUTPUT: < 0.0231 µL/min/mg

----------
# experimental_target: peroxisome proliferator-activated receptor-gamma (PPARγ) receptor (Homo sapiens (Human))
# Sequence (P37231 whole entry, species assumed): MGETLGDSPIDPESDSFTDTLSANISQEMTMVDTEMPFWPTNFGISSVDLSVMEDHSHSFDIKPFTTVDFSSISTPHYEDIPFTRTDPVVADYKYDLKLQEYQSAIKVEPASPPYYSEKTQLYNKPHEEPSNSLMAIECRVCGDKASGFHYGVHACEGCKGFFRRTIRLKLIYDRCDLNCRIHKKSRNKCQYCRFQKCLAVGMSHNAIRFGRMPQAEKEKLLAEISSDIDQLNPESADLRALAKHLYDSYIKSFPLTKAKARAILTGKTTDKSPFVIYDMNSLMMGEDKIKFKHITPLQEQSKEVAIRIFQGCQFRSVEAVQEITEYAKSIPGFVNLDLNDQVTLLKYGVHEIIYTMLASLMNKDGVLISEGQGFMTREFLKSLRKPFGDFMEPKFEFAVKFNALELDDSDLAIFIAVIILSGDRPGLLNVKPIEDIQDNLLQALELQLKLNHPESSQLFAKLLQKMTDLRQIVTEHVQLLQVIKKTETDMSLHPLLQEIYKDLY
# test_description: PPARγ activity
pEC50: −log10 of the molar value.
property_label: pEC50

INPUT: What pEC50 value was documented for this compound, Cc1n[nH]c(C)c1N1CCN(c2cc(C(=O)O)ccc2F)CC1 [Compound 18a] ?
OUTPUT: < 4.00
